Ref: ChEMBL document CHEMBL1122450

System: P388
METHOD_NOTES: Potency against lymphocytic leukemia P388 screen in mice.
Type: functional, Mus musculus
Field: label. Allowed values: Y (Potency < 1 µM/kg) or N (Potency >= 1 µM/kg).

Hi there! Is Potency for COc1cc2c(c(OC)c1OC)-c1cccc(=O)cc1[C@@H](NC(C)=O)CC2 [CHOLCHICIDE] below 1 µM/kg, do you know?
N

Hi there! Is Potency for COc1cc2c(c(OC)c1O)-c1ccc(OC)c(=O)cc1[C@@H](NC(=O)C(F)(F)F)CC2 below 1 µM/kg, do you know?
N

Hi there! Is Potency for COc1cc2c(c(OC)c1OC)-c1ccc(OC)c(=O)cc1[C@@H](NC(C)=O)CC2 below 1 µM/kg, do you know?
Y

Hi there! Is Potency for COc1cc2c(c(OC)c1OC)-c1ccc(OC)c(=O)cc1[C@@H](NC(=O)CO)CC2 below 1 µM/kg, do you know?
Y

Hi there! Is Potency for CCCC(=O)N[C@H]1CCc2cc(OC)c(OC)c(OC)c2-c2ccc(OC)c(=O)cc21 below 1 µM/kg, do you know?
Y

Hi there! Is Potency for COc1cc2c(c(OC)c1OC)-c1ccc(OC)c(=O)cc1[C@@H](NC(=O)COc1ccccc1)CC2 below 1 µM/kg, do you know?
N

Hi there! Is Potency for COc1cc2c(c(OC)c1OC)-c1ccc(OC)c(=O)cc1[C@@H](N(C)C(=O)CO)CC2 below 1 µM/kg, do you know?
Y

Hi there! Is Potency for CCOCC(=O)N[C@H]1CCc2cc(OC)c(OC)c(OC)c2-c2ccc(OC)c(=O)cc21 below 1 µM/kg, do you know?
Y

Hi there! Is Potency for COc1cc(C(=O)N[C@H]2CCc3cc(OC)c(OC)c(OC)c3-c3ccc(OC)c(=O)cc32)cc(OC)c1OC below 1 µM/kg, do you know?
N

Hi there! Is Potency for COc1c(O)c(O)cc2c1-c1ccc(OC)c(=O)cc1[C@@H](NC(C)=O)CC2 below 1 µM/kg, do you know?
N

====

Tested on: Tubulin (Rattus norvegicus)
TEST_CONTEXT: Brain, at 25 µM
RECORDED_METRIC: Binding (%)
Value expressed in %; do not type the unit.

API: value(readout=Binding, system=Tubulin (Rattus norvegicus)) for record COc1cc2c(c(OC)c1OC)-c1ccc(OC)c(=O)cc1[C@@H](NC(=O)/C=C(\C)C=C=C(C)/C=C/C1=C(C)CCCC1(C)C)CC2
41

API: value(readout=Binding, system=Tubulin (Rattus norvegicus)) for record COc1cc2c(c(OC)c1OC)-c1ccc(OC)c(=O)cc1[C@@H](N(C)C(=O)CO)CC2
99

API: value(readout=Binding, system=Tubulin (Rattus norvegicus)) for record COc1cc2c(c(OC)c1O)-c1ccc(OC)c(=O)cc1[C@@H](NC(=O)C(F)(F)F)CC2
96

API: value(readout=Binding, system=Tubulin (Rattus norvegicus)) for record COc1c(Oc2nnnn2-c2ccccc2)cc2c(c1OC)-c1ccc(OC)c(=O)cc1[C@@H](NC(C)=O)CC2
27

API: value(readout=Binding, system=Tubulin (Rattus norvegicus)) for record COc1cc(/C=C/C(=O)N[C@H]2CCc3cc(OC)c(OC)c(OC)c3-c3ccc(OC)c(=O)cc32)cc(OC)c1O
69

API: value(readout=Binding, system=Tubulin (Rattus norvegicus)) for record COc1cc2c(c(OC)c1OC)-c1ccc(=O)c(OC)cc1[C@@H](NC(=O)CO)CC2
0

API: value(readout=Binding, system=Tubulin (Rattus norvegicus)) for record CCC(=O)N[C@H]1CCc2cc(OC)c(OC)c(OC)c2-c2ccc(=O)c(OC)cc21
10

API: value(readout=Binding, system=Tubulin (Rattus norvegicus)) for record COc1cc2c(c(OC)c1Oc1nnnn1-c1ccccc1)-c1ccc(OC)c(=O)cc1[C@@H](NC(C)=O)CC2
52
